assay: A CellTox Green Cytotoxicity Assay to monitor cytotoxicity in HepG2 cells - 16 hour (AID 1224876); settings: CellTox Green fluorescence; series mostly up to 76.8 µM; further: on the % scale 0 is the no-effect control and ±100 the full control effect; nearly all actives have a fitted effect of over 45% in size
Inconclusive results are not listed. Calls of active or inactive are those of the source. The call rests on the fitted dose curve; in most records, active means well fitted activation curve with a large enough effect in the repeat runs; inconclusive means weak or mixed curves; inactive means flat fitted curve, though single readings scatter.
measurement_kind: cytotoxicity increase

Would you please look over these solved cases?
{"compound": "O=C(OCc1ccccc1)C(=O)OCc1ccccc1", "result": "inactive"}
{"compound": "CN(C)c1ccc(C=O)cc1", "result": "inactive"}
{"compound": "COC(=O)CCCCCCCC(=O)OC", "result": "inactive"}
{"compound": "COP(=O)(OC)OC(c1ccc(Cl)cc1)P(=O)(OC)OC (configuration not stated)", "result": "inactive"}
{"compound": "C=C(C)C(=O)OCC(C)(C)COC(=O)C(=C)C", "result": "inactive"}
{"compound": "CCCC(=O)C(C)=O", "result": "inactive"}

Asked: For the compound shown here, `COc1cc2c(cc1OC)C(=O)CC2` , give the reported cytotoxicity increase.
Given back: inactive

Asked: For the compound shown here, `CCCCCCCCSCC` , give the reported cytotoxicity increase.
Given back: inactive

Asked: For the compound shown here, `CC(C)C(=O)OCc1cccc(OC(=O)[C@@H]2N3C(=O)[C@@H](NC(=O)Cc4ccccc4)[C@H]3SC2(C)C)c1` , give the reported cytotoxicity increase.
Given back: inactive

Asked: For the compound shown here, `Cc1nc2n(c(=O)c1CCN1CCC(c3noc4cc(F)ccc34)CC1)CCC[C@H]2O` , give the reported cytotoxicity increase.
Given back: -0.968% [at 15.8 µM] (inactive)

Asked: For the compound shown here, Cc1cccc(C)c1OCC(C)N (configuration not stated) , give the reported cytotoxicity increase.
Given back: inactive

Asked: For the compound shown here, `Cc1c(I)c(=O)n(-c2ccccc2)n1C` , give the reported cytotoxicity increase.
Given back: inactive

Asked: For the compound shown here, CCCOC(=O)C(C)O (configuration not stated) , give the reported cytotoxicity increase.
Given back: inactive
